Molecular target: T1, TNFR1 (Homo sapiens, UniProt P19438)
T1 chain: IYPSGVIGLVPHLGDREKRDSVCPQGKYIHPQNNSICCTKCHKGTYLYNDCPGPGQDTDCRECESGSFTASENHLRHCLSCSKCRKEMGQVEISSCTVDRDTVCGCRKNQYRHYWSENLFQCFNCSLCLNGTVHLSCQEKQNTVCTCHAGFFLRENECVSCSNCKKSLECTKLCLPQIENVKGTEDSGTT
Assay: yeast display SC50
Threshold check on apparent Kd (screen): at or above 1 nM gives Yes, strictly below gives No.

[[record]]
binder = "S51L (designed binder) MTLQELLREEALRRAEAEAFRYALELLAEKFPEQKEYLLDLAEEIESQIRLLSGVDVEDVRKFLDKEWAWVKELLAEHPAELAEVEAARAARLAELRAEVEAKVAA"
discrete_label = "No"

[[record]]
binder = "L64D (designed binder) MTLQELLREEALRRAEAEAFRYALELLAEKFPEQKEYLLDLAEEIESQIRSLSGVDVEDVRKFDDKEWAWVKELLAEHPAELAEVEAARAARLAELRAEVEAKVAA"
discrete_label = "Yes"

[[record]]
binder = "A88T (designed binder) MTLQELLREEALRRAEAEAFRYALELLAEKFPEQKEYLLDLAEEIESQIRSLSGVDVEDVRKFLDKEWAWVKELLAEHPAELAEVEATRAARLAELRAEVEAKVAA"
discrete_label = "Yes"

[[record]]
binder = "K72W (designed binder) MTLQELLREEALRRAEAEAFRYALELLAEKFPEQKEYLLDLAEEIESQIRSLSGVDVEDVRKFLDKEWAWVWELLAEHPAELAEVEAARAARLAELRAEVEAKVAA"
discrete_label = "No"

[[record]]
binder = "R14T (designed binder) MTLQELLREEALRTAEAEAFRYALELLAEKFPEQKEYLLDLAEEIESQIRSLSGVDVEDVRKFLDKEWAWVKELLAEHPAELAEVEAARAARLAELRAEVEAKVAA"
discrete_label = "No"

[[record]]
binder = "E43Q (designed binder) MTLQELLREEALRRAEAEAFRYALELLAEKFPEQKEYLLDLAQEIESQIRSLSGVDVEDVRKFLDKEWAWVKELLAEHPAELAEVEAARAARLAELRAEVEAKVAA"
discrete_label = "No"

[[record]]
binder = "E84W (designed binder) MTLQELLREEALRRAEAEAFRYALELLAEKFPEQKEYLLDLAEEIESQIRSLSGVDVEDVRKFLDKEWAWVKELLAEHPAELAWVEAARAARLAELRAEVEAKVAA"
discrete_label = "No"

[[record]]
binder = "A42Y (designed binder) MTLQELLREEALRRAEAEAFRYALELLAEKFPEQKEYLLDLYEEIESQIRSLSGVDVEDVRKFLDKEWAWVKELLAEHPAELAEVEAARAARLAELRAEVEAKVAA"
discrete_label = "Yes"

[[record]]
binder = "E44K (designed binder) MTLQELLREEALRRAEAEAFRYALELLAEKFPEQKEYLLDLAEKIESQIRSLSGVDVEDVRKFLDKEWAWVKELLAEHPAELAEVEAARAARLAELRAEVEAKVAA"
discrete_label = "No"

[[record]]
binder = "E33D (designed binder) MTLQELLREEALRRAEAEAFRYALELLAEKFPDQKEYLLDLAEEIESQIRSLSGVDVEDVRKFLDKEWAWVKELLAEHPAELAEVEAARAARLAELRAEVEAKVAA"
discrete_label = "No"

[[record]]
binder = "A69V (designed binder) MTLQELLREEALRRAEAEAFRYALELLAEKFPEQKEYLLDLAEEIESQIRSLSGVDVEDVRKFLDKEWVWVKELLAEHPAELAEVEAARAARLAELRAEVEAKVAA"
discrete_label = "No"

[[record]]
binder = "E77I (designed binder) MTLQELLREEALRRAEAEAFRYALELLAEKFPEQKEYLLDLAEEIESQIRSLSGVDVEDVRKFLDKEWAWVKELLAIHPAELAEVEAARAARLAELRAEVEAKVAA"
discrete_label = "Yes"

[[record]]
binder = "V100E (designed binder) MTLQELLREEALRRAEAEAFRYALELLAEKFPEQKEYLLDLAEEIESQIRSLSGVDVEDVRKFLDKEWAWVKELLAEHPAELAEVEAARAARLAELRAEEEAKVAA"
discrete_label = "No"

[[record]]
binder = "A90P (designed binder) MTLQELLREEALRRAEAEAFRYALELLAEKFPEQKEYLLDLAEEIESQIRSLSGVDVEDVRKFLDKEWAWVKELLAEHPAELAEVEAARPARLAELRAEVEAKVAA"
discrete_label = "Yes"

[[record]]
binder = "V71T (designed binder) MTLQELLREEALRRAEAEAFRYALELLAEKFPEQKEYLLDLAEEIESQIRSLSGVDVEDVRKFLDKEWAWTKELLAEHPAELAEVEAARAARLAELRAEVEAKVAA"
discrete_label = "Yes"

[[record]]
binder = "A90Q (designed binder) MTLQELLREEALRRAEAEAFRYALELLAEKFPEQKEYLLDLAEEIESQIRSLSGVDVEDVRKFLDKEWAWVKELLAEHPAELAEVEAARQARLAELRAEVEAKVAA"
discrete_label = "No"

